Tested on: HCT-15
assay-readout: GI50 (µM)
Write the value in µM as a bare number.

Some solved entries appear below for comparison.
>  <molecule>
COC(=O)/C=C\C(C#N)(C#N)/N=C/c1cccs1

>  <assayed-target>
HCT-15

>  <GI50 / µM>
2.13

$$$$
>  <molecule>
CN(C)CCNC(=O)c1ccc(Cl)c2c(Nc3ccc(S(N)(=O)=O)cc3)c3ccccc3nc12

>  <assayed-target>
HCT-15

>  <GI50 / µM>
2.84

$$$$
>  <molecule>
C/C=C/C1=CC(=O)C(O)C1O (centres undefined)

>  <assayed-target>
HCT-15

>  <GI50 / µM>
27.6

$$$$
>  <molecule>
COc1cc2c([C@@H](OC(=O)c3ccccc3)c3ccc4c(c3)OCO4)nccc2c(OC)c1OC

>  <assayed-target>
HCT-15

>  <GI50 / µM>
37.6

$$$$
>  <molecule>
O=C(c1cccs1)N(C(=S)N1CCN(c2ccccn2)CC1)c1ccccc1

>  <assayed-target>
HCT-15

>  <GI50 / µM>
61

$$$$
>  <molecule>
O=c1ssc2ncccc12

>  <assayed-target>
HCT-15

>  <GI50 / µM>
12.1

$$$$

Q: Recall the reported GI50 of `COc1ccc(C(=O)/C=C/c2ccc(OCC(=O)N3CCN(c4ccccc4)CC3)cc2)cc1` on HCT-15 and write it down.
Ans: 54.7

Q: Provide GI50, recorded with HCT-15, of `C/C(=C\c1ccc(Cl)c(Cl)c1)[N+](=O)[O-]`
Ans: 1.35

Q: Report GI50 on HCT-15 for this entry: `Cn1cnc([N+](=O)[O-])c1Sc1nc2cc(Cl)c(F)cc2[nH]1`
Ans: 4.37

Q: Report value: GI50, system: HCT-15, molecule: Cc1cc(Cl)ccc1NC(=O)C1C(=O)N(c2ccc(Cl)cc2C)C(=O)/C1=N\NC(N)=S (centres undefined)
Ans: 17.1

Q: // output GI50; input `COc1cc2c(c(OC)c1OC)-c1ccc(SC)c(=O)cc1[C@@H](NCc1ccc([N+](=O)[O-])cc1)CC2` ; system HCT-15
Ans: 0.00487

Q: # return GI50 for `COCc1nc2c(OC)c(-c3nc4ccc(N5CCN(C)CC5)cc4[nH]3)cc(OC)c2[nH]1` , test system: HCT-15
Ans: 56.1

* * *

Tested on: EKVX
Experiment: NCI tumour cell line growth inhibition, 48 h
Calls of active or inactive are those of the source. Rule as the data show it: active = GI50 up to about 1.1 µM and inactive = higher.
Choose the fitting class; nothing outside y (active), n (inactive) is accepted.

>  <compound>
Clc1ccc(Cc2nc3ccccc3o2)cc1

>  <label>
n

$$$$
>  <compound>
OCCNc1ncnc2c1ncn2C1OC(CO)C(O)C1O (stereo not drawn)

>  <label>
n

$$$$
>  <compound>
Cc1ccc(S(=O)(=O)N2c3ccccc3[C@H]3CCc4c([nH]c5ccccc45)[C@H]32)cc1

>  <label>
n

$$$$
>  <compound>
CC(=O)Nc1ccc(NC(=O)CC(=O)Nc2ccc(NC(C)=O)cc2)cc1

>  <label>
n

$$$$
>  <compound>
C/C(=C\c1csc(C)n1)[C@@H]1C[C@@H]2O[C@]2(C)CCC[C@H](C)[C@H](O)[C@@H](C)C(=O)C(C)(C)[C@@H](O)CC(=O)O1

>  <label>
y

$$$$
>  <compound>
COc1ccc2nc3cccc([N+](=O)[O-])c3c(NCCC(=O)O)c2c1

>  <label>
n

$$$$
>  <compound>
COc1cc2oc(-c3ccccc3)cc(=O)c2c(O)c1C

>  <label>
n

$$$$

Here's the next entry for you.
Q: Please let me know the test result on file for Cc1cc(-c2ccc(/N=N/c3ccc4c(S(=O)(=O)O)cc(S(=O)(=O)O)c(N)c4c3O)c(C)c2)ccc1/N=N/c1ccc2c(S(=O)(=O)O)cc(S(=O)(=O)O)c(N)c2c1O [EVANS BLUE FREE ACID] .
Ans: n

Ref: ChEMBL document CHEMBL1201862
